test: Quantitative highthroughput screen to assess conditional lethalithy of SEM cells grown in RPMI1640 with dialyzed fetal bovine serum (RPMI+ds) (AID 1963884); conditions: SEM B-ALL cells, RPMI+dialyzed FBS, CellTiter-Glo viability, 48 h; series mostly up to 45.8 µM; note: nearly all actives have a fitted effect of over 35% in size
Inconclusive results are not listed. The source made the active and inactive calls. Calls come from the whole dose curve; as a rule, active = well fitted cell-killing curve with a large enough effect; inconclusive = small, poorly fitted or top-dose-only effect, or effect the other way; inactive = no such curve, though single readings can be large or run the other way.
The categories you may choose from are true = active, false = inactive

I would be grateful if you could indicate the recorded call for C[C@H](NC(=O)C(=O)Nc1ccccc1C(C)(C)C)C(=O)N[C@@H](CC(=O)O)C(=O)COc1c(F)c(F)cc(F)c1F .
true

Further, for NC(=O)c1cnccn1 ?
false

Can you handle COCCOc1nc(-c2ccc(Cl)c(Cl)c2)n(-c2ccc(NC(=O)CCl)cc2)n1 next?
false

Now consider C[C@@]12C(=O)OC(=O)[C@@]1(C)C1CCC2O1 .
true

Now consider CCOC(=O)[C@H](CCc1ccccc1)N[C@@H](C)C(=O)N1CCCC1C(=O)O (some centres undefined) and answer again.
false

Proceed to CCN(C(=O)c1c(O)c2c(Cl)cccc2n(C)c1=O)c1ccccc1
true

Values were extracted from PubChem BioAssay (NCATS).
